Please respond with reported AUC(0-inf) for every item in the list.
- method.description: AUC (0 to infinity) in Sprague-Dawley rat at 5 mg/kg, po by LC-MS/MS analysis
- Assay type: ADME, organism-based
- Design: dose 5 mg/kg, time infinity, route oral
- experimental.parameters: in vivo
Give the figure together with its unit, number first.

Form field AUC(0-inf), entry Cc1cc(-c2cnn3c(NCCN4CCOCC4)cc(Oc4cccc(F)c4)nc23)ccc1C(=O)NC1CC1 : 1900 ng·h/mL

Form field AUC(0-inf), entry Cc1cc(-c2cnn3c(NCC4CC4)cc(NC4CCCC[C@H]4O)nc23)ccc1C(=O)NC1CC1 (single isomer, unassigned) : 3700 ng·h/mL

Form field AUC(0-inf), entry Cc1cc(-c2cnn3c(NC[C@H]4C[C@@](C)(O)C4)cc(Oc4cccnc4)nc23)ccc1C(=O)NC1CC1 [LUVIXASERTIB] : 3400 ng·h/mL

Form field AUC(0-inf), entry Cc1cc(-c2cnn3c(NCC4CCOCC4)cc(N[C@@H](C4CC4)C(C)(C)O)nc23)ccc1C(=O)NC1CC1 : 490 ng·h/mL

* * *

- method.description: Dissociation constant, pKa of the compound
- Assay type: physicochemical
Please respond with reported pKa for every item in the list.

Form field pKa, entry Cc1cc(-c2cnn3c(NC[C@H]4C[C@H](O)C4)cc(NC4CCCC4)nc23)ccc1C(=O)NC1CC1 : 3.7

Form field pKa, entry Cc1cc(-c2cnn3c(NCC4CCOCC4)nc(NC4CCCC4)nc23)ccc1C(=O)NC1CC1 : 2.7

Form field pKa, entry Cc1cc(-c2cnn3c(NC[C@H]4C[C@](C)(O)C4)cc(NC4CCCC4)nc23)ccc1C(=O)NC1CC1 : 3.2

Form field pKa, entry Cc1cc(-c2cnn3c(NC[C@H]4CC[C@H](O)CC4)cc(Oc4cccnc4)nc23)ccc1C(=O)NC1CC1 : 3.7

Form field pKa, entry Cc1cc(-c2cnn3c(NCC4CC4)cc(NC4CCCC[C@H]4O)nc23)ccc1C(=O)NC1CC1 (single isomer, unassigned) : 3.4

Form field pKa, entry Cc1cc(-c2cnn3c(NC[C@H]4C[C@@](C)(O)C4)cc(NC4CCCC4)nc23)ccc1C(=O)NC1CC1 : 3.2

Form field pKa, entry Cc1cc(-c2cnn3c(NCC4CCOCC4)cc(N[C@@H]4CCCC[C@H]4O)nc23)ccc1C(=O)NC1CC1 : 3.3

Form field pKa, entry CC[C@H](CO)Nc1cc(NCC2CCOCC2)n2ncc(-c3ccc(C(=O)NC4CC4)c(C)c3)c2n1 : 3.5

Form field pKa, entry Cc1cc(-c2cnn3c(NCC4CCOCC4)nc(Oc4ccccc4)nc23)ccc1C(=O)NC1CC1 : 1.6

Form field pKa, entry Cc1cc(-c2cnn3c(NCC4CCOCC4)cc(N[C@@H](C4CC4)C(C)(C)O)nc23)ccc1C(=O)NC1CC1 : 3.5

Form field pKa, entry Cc1cc(-c2cnn3c(NCC4CCOCC4)cc(N[C@H]4CCCC[C@H]4O)nc23)ccc1C(=O)NC1CC1 : 3.3

Form field pKa, entry Cc1cc(-c2cnn3c(NC[C@H]4C[C@H](O)C4)cc(Oc4cccnc4)nc23)ccc1C(=O)NC1CC1 : 3.7

* * *

endpoint.name: pIC50
Expect pIC50 as a plain number equal to -log10 of the molar concentration.

Short answer on Dual specificity protein kinase TTK (Homo sapiens) for Cc1cc(-c2cnn3c(NCCN4CCOCC4)cc(Oc4cccc(F)c4)nc23)ccc1C(=O)NC1CC1 , pIC50: 8.66

Short answer on Dual specificity protein kinase TTK (Homo sapiens) for Cc1cc(-c2cnn3c(NCC4CCOCC4)nc(Oc4ccccc4)nc23)ccc1C(=O)NC1CC1 , pIC50: 8.85

Short answer on Dual specificity protein kinase TTK (Homo sapiens) for Cc1cc(-c2cnn3c(NCC4CCOCC4)nc(NC4CCCC4)nc23)ccc1C(=O)NC1CC1 , pIC50: 8.24

Short answer on Dual specificity protein kinase TTK (Homo sapiens) for Cc1cc(-c2cnn3c(NC[C@H]4C[C@H](O)C4)cc(NC4CCCC4)nc23)ccc1C(=O)NC1CC1 , pIC50: 8.62

Short answer on Dual specificity protein kinase TTK (Homo sapiens) for Cc1cc(-c2cnn3c(NCC4CCOCC4)cc(N[C@@H](C4CC4)C(C)(C)O)nc23)ccc1C(=O)NC1CC1 , pIC50: 8.15
